- assayed_system: hMC3-R (human) (UniProt P41968)
- Sequence (P41968 whole entry): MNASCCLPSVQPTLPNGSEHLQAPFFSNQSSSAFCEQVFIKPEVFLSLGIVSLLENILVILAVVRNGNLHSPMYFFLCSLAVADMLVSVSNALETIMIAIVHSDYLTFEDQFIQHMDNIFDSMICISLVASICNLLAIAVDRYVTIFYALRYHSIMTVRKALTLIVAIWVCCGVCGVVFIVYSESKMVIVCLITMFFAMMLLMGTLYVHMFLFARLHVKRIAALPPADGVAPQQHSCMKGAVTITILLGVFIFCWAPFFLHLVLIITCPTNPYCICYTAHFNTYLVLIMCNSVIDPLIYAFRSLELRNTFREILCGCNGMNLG
- procedure_summary: competition with [125I]-NDP-α-MSH, CHO-K1 membranes
Bridge positions count the residues as written; N and C are the ends. Square brackets hold non-standard residues; d marks the D form. Ends that are not written are not given here. Bip = N[C@@H](Cc1ccc(-c2ccccc2)cc1)C(=O)O; 1Nal = N[C@@H](Cc1cccc2ccccc12)C(=O)O; 2Nal = N[C@@H](Cc1ccc2ccccc2c1)C(=O)O; d2Nal = N[C@H](Cc1ccc2ccccc2c1)C(=O)O; Nle = CCCC[C@H](N)C(=O)O; GABA = NCCCC(=O)O; βAla = NCCC(=O)O
Hi there, I'd appreciate the recorded Ki for every entry that follows.
Returns: string containing the numeric result and its unit.

Request: Name the reported Ki value associated with the binder [dF]CH[d(Et)Tyr]RW[βAla][dC]T-NH2 (disulfide 2-8) [D-Phe-c(Cys-His-D-(Et)Tyr-Arg-Trp-β-Ala-D-Cys)-Thr-NH2]
Result: 9.3 nM

Request: Name the reported Ki value associated with the binder Ac-[Nle]C[dA]H[d2Nal]R[2Nal]C-NH2 (disulfide 2-8; SMILES CCCC[C@H](NC(C)=O)C(=O)N[C@H]1CSSC[C@@H](C(N)=O)NC(=O)[C@H](Cc2ccc3ccccc3c2)NC(=O)[C@H](CCCNC(=N)N)NC(=O)[C@@H](Cc2ccc3ccccc3c2)NC(=O)[C@H](Cc2c[nH]cn2)NC(=O)[C@@H](C)NC1=O) [Ac-Nle-c(Cys-D-Ala-His-D-2-Nal-Arg-2-Nal-Cys)-NH2]
Result: 5.85 nM

Request: Name the reported Ki value associated with the binder [dF]CH[dF]RW[GABA][dC]T-NH2 (disulfide 2-8; N-terminus assumed; SMILES C[C@@H](O)[C@H](NC(=O)[C@H]1CSSC[C@H](NC(=O)[C@H](N)Cc2ccccc2)C(=O)N[C@@H](Cc2c[nH]cn2)C(=O)N[C@H](Cc2ccccc2)C(=O)N[C@@H](CCCNC(=N)N)C(=O)N[C@@H](Cc2c[nH]c3ccccc23)C(=O)NCCCC(=O)N1)C(N)=O) [D-Phe-c(Cys-His-D-Phe-Arg-Trp-Gaba-D-Cys)-Thr-NH2]
Result: 106 nM

Request: Name the reported Ki value associated with the binder [dF]CH[dF]R[Bip][βAla][dC]T-NH2 (disulfide 2-8; N-terminus assumed; SMILES C[C@@H](O)[C@H](NC(=O)[C@H]1CSSC[C@H](NC(=O)[C@H](N)Cc2ccccc2)C(=O)N[C@@H](Cc2c[nH]cn2)C(=O)N[C@H](Cc2ccccc2)C(=O)N[C@@H](CCCNC(=N)N)C(=O)N[C@@H](Cc2ccc(-c3ccccc3)cc2)C(=O)NCCC(=O)N1)C(N)=O) [D-Phe-c(Cys-His-D-Phe-Arg-Bip-β-Ala-D-Cys)-Thr-NH2]
Result: 3370 nM

Request: Name the reported Ki value associated with the binder Ac-[Nle]CH[d2Nal]RW[GABA]C-NH2 (disulfide 2-8) [Ac-Nle-c(Cys-His-D-2-Nal-Arg-Trp-Gaba-Cys)-NH2]
Result: 1.86 nM

Request: Name the reported Ki value associated with the binder Ac-[Nle]C[dA]H[d2Nal]R[1Nal]C-NH2 (disulfide 2-8; SMILES CCCC[C@H](NC(C)=O)C(=O)N[C@H]1CSSC[C@@H](C(N)=O)NC(=O)[C@H](Cc2cccc3ccccc23)NC(=O)[C@H](CCCNC(=N)N)NC(=O)[C@@H](Cc2ccc3ccccc3c2)NC(=O)[C@H](Cc2c[nH]cn2)NC(=O)[C@@H](C)NC1=O) [Ac-Nle-c(Cys-D-Ala-His-D-2-Nal-Arg-1-Nal-Cys)-NH2]
Result: 63.9 nM
